target: BRG-1 (Homo sapiens); construct: made in house; host or cells: High Five insect cells; experiment: ATPase catalytic activity of BRG-1, ADP-Glo in vitro biochemical assay; details: ATPase catalytic activity, 30 nM BRG-1, 400 μM ATP, read-out: BRG1 IP50 (μM)*
Sequence (P51532 whole entry): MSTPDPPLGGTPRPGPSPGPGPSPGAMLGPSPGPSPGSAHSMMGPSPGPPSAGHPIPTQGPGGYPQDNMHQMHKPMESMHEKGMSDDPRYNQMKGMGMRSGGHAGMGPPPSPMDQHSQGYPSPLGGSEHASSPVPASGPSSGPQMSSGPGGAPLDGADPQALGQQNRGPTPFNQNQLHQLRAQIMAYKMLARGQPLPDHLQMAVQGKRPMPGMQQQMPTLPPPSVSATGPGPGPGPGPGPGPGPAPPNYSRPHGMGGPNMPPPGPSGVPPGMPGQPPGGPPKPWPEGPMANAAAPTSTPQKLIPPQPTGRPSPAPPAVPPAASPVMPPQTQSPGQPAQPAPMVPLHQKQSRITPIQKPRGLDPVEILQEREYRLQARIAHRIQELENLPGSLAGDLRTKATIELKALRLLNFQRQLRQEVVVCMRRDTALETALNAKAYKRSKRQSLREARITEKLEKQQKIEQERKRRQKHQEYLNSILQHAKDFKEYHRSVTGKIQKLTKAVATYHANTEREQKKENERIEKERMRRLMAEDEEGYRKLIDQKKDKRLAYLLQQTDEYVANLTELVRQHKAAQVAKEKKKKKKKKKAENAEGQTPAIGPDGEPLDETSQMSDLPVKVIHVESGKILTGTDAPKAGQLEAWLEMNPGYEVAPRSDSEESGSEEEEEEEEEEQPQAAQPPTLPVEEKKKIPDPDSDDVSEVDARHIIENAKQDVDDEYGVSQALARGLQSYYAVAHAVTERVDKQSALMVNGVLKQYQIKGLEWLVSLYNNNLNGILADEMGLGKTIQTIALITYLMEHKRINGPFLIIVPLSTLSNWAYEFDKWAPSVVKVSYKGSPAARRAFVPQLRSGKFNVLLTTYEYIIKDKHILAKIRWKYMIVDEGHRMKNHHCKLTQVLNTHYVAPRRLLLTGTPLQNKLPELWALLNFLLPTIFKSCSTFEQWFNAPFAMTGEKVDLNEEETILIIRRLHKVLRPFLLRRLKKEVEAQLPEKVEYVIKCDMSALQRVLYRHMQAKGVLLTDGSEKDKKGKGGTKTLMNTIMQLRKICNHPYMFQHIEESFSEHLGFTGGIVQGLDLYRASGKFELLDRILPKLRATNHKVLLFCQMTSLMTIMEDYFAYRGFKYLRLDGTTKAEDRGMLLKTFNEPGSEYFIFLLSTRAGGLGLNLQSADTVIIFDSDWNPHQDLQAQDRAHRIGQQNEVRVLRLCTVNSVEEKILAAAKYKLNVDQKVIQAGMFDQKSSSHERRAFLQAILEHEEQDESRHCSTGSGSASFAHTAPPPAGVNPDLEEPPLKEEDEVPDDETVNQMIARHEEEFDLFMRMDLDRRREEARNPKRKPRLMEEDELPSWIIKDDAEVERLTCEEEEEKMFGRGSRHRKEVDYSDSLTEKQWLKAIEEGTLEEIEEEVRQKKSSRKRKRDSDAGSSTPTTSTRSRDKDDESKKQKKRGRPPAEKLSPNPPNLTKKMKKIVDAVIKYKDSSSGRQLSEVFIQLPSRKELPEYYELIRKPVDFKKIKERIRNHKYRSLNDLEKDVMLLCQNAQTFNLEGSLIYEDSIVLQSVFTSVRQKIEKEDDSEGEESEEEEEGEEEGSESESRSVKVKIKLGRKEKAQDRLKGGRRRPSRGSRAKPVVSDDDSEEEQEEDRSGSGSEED
reported.property: IC50

I would be grateful if you could share the reported IC50 for `CS(=O)(=O)n1ccc(C(=O)NCC(=O)Nc2nc(-c3cccc(OCF)c3)cs2)c1` . > 0.01 µM

I would be grateful if you could share the reported IC50 for `COC[C@H](NC(=O)c1ccn(S(C)(=O)=O)c1)C(=O)Nc1nc(-c2cccc(N3CC(OC)C3)c2)cs1` . > 0.01 µM

I would be grateful if you could share the reported IC50 for `CO[C@@H]1CCCN(c2cccc(-c3csc(NC(=O)CNC(=O)c4ccn(C5(C)COC5)c4)n3)n2)C1` . > 0.1 µM

I would be grateful if you could share the reported IC50 for `CS(=O)(=O)n1ccc(C(=O)NCC(=O)Nc2nc(-c3cccc(N4CCC[C@H](F)C4)c3)cs2)c1` . > 0.01 µM

I would be grateful if you could share the reported IC50 for `CS(=O)(=O)n1ccc(C(=O)NCC(=O)Nc2nc(-c3cccc(N4CC5(CCCOC5)C4)c3)cs2)c1` . > 0.1 µM

I would be grateful if you could share the reported IC50 for `CN(C)C1CN(c2cccc(-c3csc(NC(=O)CNC(=O)c4ccn(S(C)(=O)=O)c4)n3)c2)C1` . > 0.01 µM

I would be grateful if you could share the reported IC50 for `CC1(n2ccc(C(=O)NCC(=O)Nc3nc(-c4ccc5c(c4)OCC5)cs3)c2)COC1` . > 0.1 µM

I would be grateful if you could share the reported IC50 for `C[C@@H]1CN(c2cccc(-c3csc(NC(=O)CNC(=O)c4ccn(C5(C)COC5)c4)n3)n2)C[C@H](C)O1` . > 0.01 µM

I would be grateful if you could share the reported IC50 for `CC(C)(C)n1ccc(C(=O)NCC(=O)Nc2nc(-c3cccc(C#N)c3)cs2)n1` . > 0.1 µM

I would be grateful if you could share the reported IC50 for `C[C@@H]1CN(c2cccc(-c3csc(NC(=O)CNC(=O)c4ccn(S(C)(=O)=O)c4)n3)c2)CC[C@H]1O` . < 0.01 µM

I would be grateful if you could share the reported IC50 for `CN1CC(OCc2cccc(-c3csc(NC(=O)CNC(=O)c4ccn(C(C)(C)C)c4)n3)c2)C1` . > 1 µM

I would be grateful if you could share the reported IC50 for `COC[C@H](NC(=O)c1ccn(S(C)(=O)=O)c1)C(=O)Nc1nc(-c2cccc(N3CCC(O)CC3)c2)cs1` . > 0.01 µM

I would be grateful if you could share the reported IC50 for `C[C@H](NC(=O)c1ccn(C2(C)COC2)c1)C(=O)Nc1nc(-c2ccc3ccn(C)c(=O)c3c2)cs1` . > 0.01 µM

I would be grateful if you could share the reported IC50 for `C[C@H](NC(=O)c1ccn(S(C)(=O)=O)c1)C(=O)Nc1nc(-c2cccc(N3CCC3)c2)cs1` . > 0.01 µM

I would be grateful if you could share the reported IC50 for `C[C@@H]1CN(c2cccc(-c3csc(NC(=O)CNC(=O)c4ccn(S(C)(=O)=O)c4)n3)c2)C[C@@H](C)O1` . < 0.01 µM

I would be grateful if you could share the reported IC50 for `COCCN1CCc2ccc(-c3csc(NC(=O)CNC(=O)c4ccn(S(C)(=O)=O)c4)n3)cc21` . > 0.01 µM

I would be grateful if you could share the reported IC50 for `CO[C@H]1CCCN(c2cccc(-c3csc(NC(=O)CNC(=O)c4ccn(C(C)(C)C)c4)n3)c2)C1` . > 0.01 µM

I would be grateful if you could share the reported IC50 for `COC[C@@H]1CCCN(c2cccc(-c3csc(NC(=O)CNC(=O)c4ccn(C(C)(C)C)c4)n3)n2)C1` . > 0.01 µM

I would be grateful if you could share the reported IC50 for `C[C@@H]1CN(c2cccc(-c3csc(NC(=O)CNC(=O)c4ccn(C(C)(C)C)c4)n3)c2F)C[C@H](C)O1` . > 0.01 µM

I would be grateful if you could share the reported IC50 for `C[C@@H]1CN(c2nc(-c3csc(NC(=O)CNC(=O)c4ccn(S(C)(=O)=O)c4)n3)ccc2F)C[C@H](C)O1` . < 0.01 µM

I would be grateful if you could share the reported IC50 for `CS(=O)(=O)n1ccc(C(=O)NCC(=O)Nc2nc(-c3cccc(-c4cn(C(F)F)nn4)c3)cs2)c1` . > 0.01 µM

I would be grateful if you could share the reported IC50 for `CS(=O)(=O)n1ccc(C(=O)NCC(=O)Nc2nc(-c3cccc(OC4CCOCC4)c3)cs2)c1` . > 0.01 µM

I would be grateful if you could share the reported IC50 for `C[C@@H]1CN(c2cccc(-c3csc(NC(=O)CNC(=O)c4ccn(C(C)(C)C)c4)n3)c2)C[C@H](C)O1` . < 0.01 µM

I would be grateful if you could share the reported IC50 for `CS(=O)(=O)n1ccc(C(=O)NCC(=O)Nc2nc(-c3cccc(OC4CC4)c3)cs2)c1` . > 0.01 µM

I would be grateful if you could share the reported IC50 for `COCCS(=O)(=O)n1ccc(C(=O)NCC(=O)Nc2nc(-c3cccc(N4C[C@@H](C)O[C@@H](C)C4)c3)cs2)c1` . > 0.01 µM

I would be grateful if you could share the reported IC50 for `C[C@@H]1COCCN1c1cccc(-c2csc(NC(=O)CNC(=O)c3ccn(S(C)(=O)=O)c3)n2)c1` . > 0.01 µM

I would be grateful if you could share the reported IC50 for `COCC[C@H](NC(=O)c1ccn(S(C)(=O)=O)c1)C(=O)Nc1nc(-c2cccc(-c3ccncc3)c2)cs1` . < 0.01 µM

I would be grateful if you could share the reported IC50 for `Cn1cnc(-c2cccc(-c3csc(NC(=O)CNC(=O)c4ccn(S(C)(=O)=O)c4)n3)c2)c1` . > 0.01 µM

I would be grateful if you could share the reported IC50 for `CN(C)C(=O)Cn1ccc(-c2cccc(-c3csc(NC(=O)CNC(=O)c4ccn(S(C)(=O)=O)c4)n3)c2)n1` . < 0.01 µM
